Biological target: corticotropin releasing factor 1 receptor
Assay: cell-based or functional assay
Ends that are not written are not given here.
measure: CRF1R EC50 (µM)
Provide the reading as a plain figure in µM.

What measured CRF1R EC50 goes with NDDPPISIDLPLLLLRNMIEMARIENEREQAGLNAKYLAEV-NH2 [SEQ ID NO 268] ?
1

Moving on to IVLSLDVPIHLLQILLEQARARAAREQATTNARILARV-NH2 [SEQ ID NO 371]
1

Moving on to ZGPPISIDLPFFLLRKMIEIEKQEKEKQQAANNALLLDTI (C-terminal amide) [SEQ ID NO 318]
0.135

Moving on to ZGPPISIDLPTWLLRKVIEIEKQEKEKQQAANNRLLLDTI (C-terminal amide) [SEQ ID NO 284]
1

Moving on to ZGPPISIDLPFQLLRKVIEIEKQEKEKQQAANNALLLDTI (C-terminal amide) [SEQ ID NO 350]
1

Moving on to ZGPPISIDLPWWLLRKMIEIEKQEKEKQQAANNRLLLDTI (C-terminal amide) [SEQ ID NO 216]
0.0498

Cited source for all entries: patent US20030148956A1
